- Test system: CAKI-1
- protocol.description: NCI tumour cell line growth inhibition, 48 h
The source made the active and inactive calls. Cut-off read from the data, not from the text of the source: active = GI50 up to about 1.1 µM and inactive = higher.
Examples of molecules with documented GI50 follow.

| molecule | measure.name | value.measured |
| --- | --- | --- |
| c1cc2c(ncc3cscc32)s1 | GI50 | > 72.4 µM (inactive) |
| COC(=O)C1(F)C(=O)NC(=O)NC1O (stereo not drawn) | GI50 | 97.9 µM (inactive) |

What does the record list as GI50 for `O=c1cc(NCc2ccncc2)[nH]c(=O)[nH]1` ? > 100 µM (inactive)

Looking for the measured GI50 of CC1CCC(=O)C(C(O)CC2CC(=O)N(c3ccccc3)C(=O)C2)C1 (stereo not drawn) , can you help? > 100 µM (inactive)

Name the recorded GI50 for `O=C1OC(c2ccccc2Br)=N/C1=C/c1ccccc1` . 35.2 µM (inactive)

Consider the molecule CCC(C)C(=O)c1c(O)c(C/C=C(\C)CCC=C(C)C)c(O)c2c(C(O)CC)cc(=O)oc12 (stereo not drawn) and give its measured GI50. 2.23 µM (inactive)

Which measured GI50 value corresponds to `COC(=O)/C=C1/OC(c2ccccc2)=CC1=O` ? 19.4 µM (inactive)

Entry under review: `C=C(C)OCOCCOC` . Reported GI50? > 100 µM (inactive)

What value of GI50 has been recorded for this entry: `COCCCNC(=O)C1=C(C)NC(C)=C(C(=O)NCCCOC)C1` > 100 µM (inactive)

Fill blank: measured GI50 of the molecule CN(C)CCC1(C2=CCCC2)CC/C(=C\c2ccccc2)C1=O (stereo not drawn) is ____. 12.5 µM (inactive)

----------
- System: CAKI-1
- protocol.description: NCI tumour cell line growth inhibition, 48 h
The source made the active and inactive calls. No stated cut-off is given here; in the data, active = GI50 up to about 1.1 µM and inactive = higher.
measure.name: GI50

May I ask what GI50 has been recorded for `O=C(CN1CCN(c2ccccc2)CC1)c1ccc2[nH]c(=O)oc2c1` ? > 100 µM (inactive)

// GI50 lookup, key: `Cn1nc(-c2ccccc2)nc1[N+](=O)[O-]` > 10 µM (inactive)

Requested read-out: GI50. Entry: `CN(C)Cc1cc(C(=O)/C=C/c2ccc(F)cc2)cc(CN(C)C)c1O` 18.7 µM (inactive)

Can you share its GI50? I mean this molecule: `C=CNC(=O)NC(=O)CSc1nc(=O)c(-c2ccccc2NC(=O)C(F)(F)F)n[nH]1` > 100 µM (inactive)

Item CC(=O)C1(/N=N/c2ccc(S(N)(=O)=O)cc2)CCOC1=O (stereo not drawn) has what recorded GI50? > 100 µM (inactive)

I am curious: what GI50 value has been reported for `COc1cc(OC)c(-c2cc(=O)c3c(OC)c(OC)c(OC)c(OC)c3o2)cc1OC` ? 36.1 µM (inactive)

Requested read-out: GI50. Entry: `O=C(O)[C@@H]1[C@H](C(=O)O)[C@H](C(=O)O)C[C@@H]1C(=O)O` > 100 µM (inactive)

Fill in: GI50 of CC(=O)OC(C)C(=O)C1c2cccc(O)c2C(=O)c2c(O)cc(C)cc21 (stereo not drawn) is ___ 1.71 µM (inactive)
